# target.of.assay: T1, Monomeric hAng-2FD (human, UniProt O15123 282-496)
# T1 construct: also called fibrinogen-like domain of human Ang2; Human Ang-2FD
# T1 sequence: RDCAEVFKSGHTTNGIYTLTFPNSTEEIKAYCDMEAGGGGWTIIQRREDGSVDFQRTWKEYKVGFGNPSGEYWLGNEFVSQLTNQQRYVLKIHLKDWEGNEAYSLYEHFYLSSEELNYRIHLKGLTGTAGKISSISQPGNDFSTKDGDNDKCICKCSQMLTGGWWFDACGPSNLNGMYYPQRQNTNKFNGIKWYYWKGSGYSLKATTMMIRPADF
# protocol.summary: SPR, captured Ab
# label = 1 if T1/2 >= 20 min else 0

Solved entries:
H1H732N (antibody, V domains shown) VH: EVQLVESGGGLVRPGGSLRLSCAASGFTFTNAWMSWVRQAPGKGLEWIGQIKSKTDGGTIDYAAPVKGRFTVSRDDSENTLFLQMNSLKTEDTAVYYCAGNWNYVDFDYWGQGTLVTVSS VL: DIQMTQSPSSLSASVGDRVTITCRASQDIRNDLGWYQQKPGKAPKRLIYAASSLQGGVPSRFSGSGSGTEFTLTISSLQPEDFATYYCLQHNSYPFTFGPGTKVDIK	0
H2M744N (antibody, V domains shown) VH: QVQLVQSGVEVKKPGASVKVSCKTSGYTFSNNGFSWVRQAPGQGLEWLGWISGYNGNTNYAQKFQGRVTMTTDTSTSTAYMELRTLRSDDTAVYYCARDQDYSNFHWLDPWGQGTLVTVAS VL: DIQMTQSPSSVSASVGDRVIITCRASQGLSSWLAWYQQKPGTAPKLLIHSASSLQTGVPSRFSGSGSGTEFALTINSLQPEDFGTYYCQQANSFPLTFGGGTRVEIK	1
H1M728N (antibody, V domains shown) VH: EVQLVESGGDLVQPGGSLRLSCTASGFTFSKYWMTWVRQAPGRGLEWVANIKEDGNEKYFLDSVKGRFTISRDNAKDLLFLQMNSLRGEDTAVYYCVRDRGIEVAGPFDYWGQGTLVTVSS VL: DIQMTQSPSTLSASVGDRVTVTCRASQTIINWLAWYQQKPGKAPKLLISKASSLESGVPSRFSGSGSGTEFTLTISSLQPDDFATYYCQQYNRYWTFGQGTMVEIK	1

*Q* I'd appreciate it if you could say whether H2M750N (antibody, V domains shown) VH: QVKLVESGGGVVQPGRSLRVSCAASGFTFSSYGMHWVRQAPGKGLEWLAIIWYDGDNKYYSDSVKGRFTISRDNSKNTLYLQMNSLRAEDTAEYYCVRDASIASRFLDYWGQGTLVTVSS VL: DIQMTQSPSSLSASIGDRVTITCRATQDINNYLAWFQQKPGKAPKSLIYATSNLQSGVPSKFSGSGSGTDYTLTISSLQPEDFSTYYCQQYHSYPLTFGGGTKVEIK has T1/2 at least equal to 20 min.
*A* 1

*Q* I'd appreciate it if you could say whether H2M743N (antibody, V domains shown) VH: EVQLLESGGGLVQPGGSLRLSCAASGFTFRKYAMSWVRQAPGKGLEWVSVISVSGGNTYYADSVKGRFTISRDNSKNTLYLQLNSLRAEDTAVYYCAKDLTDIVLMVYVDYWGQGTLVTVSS VL: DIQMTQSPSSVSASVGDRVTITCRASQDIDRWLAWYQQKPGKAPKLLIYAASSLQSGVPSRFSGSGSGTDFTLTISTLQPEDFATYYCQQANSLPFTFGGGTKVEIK has T1/2 at least equal to 20 min.
*A* 1
